Read-out: TIMP metallopeptidase inhibitor 1 (TIMP1), TIMP1 (gene 7076)
Protocol details: BSK_MyoF_TIMP1: BioMAP Diversity Plus: MyoF Assay for TIMP metallopeptidase inhibitor 1 (TIMP1) Biomarker Activity (AID 2284269)
Run conditions: primary human lung fibroblasts
The source made the active and inactive calls. How the source made its calls: active means hit-call score of the fitted dose curve at least 0.9, where 1 is the maximum; inactive means score below 0.9.
Pick from Yes (active), No (inactive) when you respond.

# fetch the recorded call for Cc1ccc(Nc2ccc(O)c3c2C(=O)c2ccccc2C3=O)cc1 here
No

# fetch the recorded call for CCn1c2ccccc2c2cc(N)ccc21 here
No

# fetch the recorded call for N#Cc1ccc(CC(=NNC(=O)Nc2ccc(OC(F)(F)F)cc2)c2cccc(C(F)(F)F)c2)cc1 here
No

# fetch the recorded call for BrC1CCC(Br)C(Br)CCC(Br)C(Br)CCC1Br (stereo unspecified) here
No

# fetch the recorded call for CC(C)c1ccc(C(C)C)cc1 here
No

# fetch the recorded call for C=C(C)C(=O)O[C@H]1C[C@@H]2CC[C@@]1(C)C2(C)C here
Yes

---

Tested on: Aryl hydrocarbon receptor (Homo sapiens) (UniProt P35869)
Sequence (P35869 whole entry, looked up): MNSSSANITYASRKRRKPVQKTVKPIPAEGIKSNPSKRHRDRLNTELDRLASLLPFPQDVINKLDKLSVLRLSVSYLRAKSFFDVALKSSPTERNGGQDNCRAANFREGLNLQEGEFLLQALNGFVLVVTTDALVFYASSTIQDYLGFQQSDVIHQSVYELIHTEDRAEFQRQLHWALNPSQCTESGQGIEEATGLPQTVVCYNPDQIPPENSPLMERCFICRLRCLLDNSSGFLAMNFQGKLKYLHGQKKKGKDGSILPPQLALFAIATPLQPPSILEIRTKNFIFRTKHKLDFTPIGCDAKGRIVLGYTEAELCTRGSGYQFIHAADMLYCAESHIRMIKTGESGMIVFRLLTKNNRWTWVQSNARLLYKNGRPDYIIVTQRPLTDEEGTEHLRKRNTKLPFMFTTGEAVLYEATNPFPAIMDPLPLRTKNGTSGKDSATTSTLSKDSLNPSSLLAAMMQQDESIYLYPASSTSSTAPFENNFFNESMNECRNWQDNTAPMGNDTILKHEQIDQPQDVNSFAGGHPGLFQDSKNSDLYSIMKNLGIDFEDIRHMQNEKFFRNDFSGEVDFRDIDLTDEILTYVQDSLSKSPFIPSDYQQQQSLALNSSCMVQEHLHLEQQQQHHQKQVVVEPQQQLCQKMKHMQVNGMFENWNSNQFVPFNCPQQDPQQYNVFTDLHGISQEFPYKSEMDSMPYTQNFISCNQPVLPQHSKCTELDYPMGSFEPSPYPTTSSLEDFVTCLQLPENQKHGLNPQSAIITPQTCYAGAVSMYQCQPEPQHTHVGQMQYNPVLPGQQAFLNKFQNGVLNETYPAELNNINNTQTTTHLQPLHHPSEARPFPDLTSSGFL
Protocol details: ATG_Ahr_CIS: Attagene CIS-FACTORIAL HepG2 Assay for human Aryl Hydrocarbon Receptor (Ahr) (AID 2282930)
Run conditions: HepG2 AhR cis-factorial reporter transcription; actives raise or lower the signal
Activity calls are given as the source filed them. How the source made its calls: active means hit-call score of the fitted dose curve at least 0.9, where 1 is the maximum; inactive means score below 0.9.
Pick from YES for active, NO for inactive when you respond.

# fetch the recorded call for CCCCCCCCCOC(C)=O here
NO

# fetch the recorded call for O=c1cc(-c2ccccc2)oc2cc(O)cc(O)c12 here
YES

# fetch the recorded call for CCCCCCCCC here
NO

# fetch the recorded call for Clc1ccc2c(c1)C(N1CCNCC1)=Nc1ccccc1O2 here
YES

# fetch the recorded call for CN(C)CCCN here
NO

# fetch the recorded call for c1ccc2[nH]ccc2c1 here
YES

# fetch the recorded call for CN(C)c1ccc(O)c2c1C[C@H]1C[C@H]3[C@H](N(C)C)C(=O)C(C(N)=O)=C(O)[C@@]3(O)C(=O)C1=C2O here
NO

# fetch the recorded call for COc1ccc(Cl)cc1C here
YES

---

Protocol details: ATG_ISRE_CIS: Attagene CIS-FACTORIAL HepG2 Assay for human Interferon Regulatory Factor 1 (IRF1) binding to an Interferon-Stimulated Response Element (ISRE) (AID 2282948)
Run conditions: HepG2 ISRE cis-reporter (Attagene), mRNA transcription readout; actives raise or lower the signal
Description: ATG_CIS is a cell-based, multiplexed-readout assay that uses HepG2, a human liver cell line, with measurements taken at 24 hours after chemical dosing in a 24-well plate.ATG_ISRE_CIS is one of 52 assay component(s) measured or calculated from the ATG_CIS assay. […] This assay endpoint, ATG_ISRE_CIS, was analyzed with bidirectional fitting relative to DMSO as the negative control and baseline of activity. […]
Active and inactive are the calls of the source. Rule for the calls: active = hit-call score of the fitted dose curve at least 0.9, where 1 is the maximum; inactive = score below 0.9.
Pick from yes (1) for active, no (0) for inactive when you respond.

# fetch the recorded call for Nc1ccc(F)c([N+](=O)[O-])c1 here
no (0)

# fetch the recorded call for CCC(=O)OCCC(C)CCC=C(C)C (stereo not given) here
no (0)

# fetch the recorded call for COc1ccc(O)cc1 here
no (0)

# fetch the recorded call for c1ccc2[nH]ccc2c1 here
no (0)

# fetch the recorded call for CC(C)=CCC[C@H](C)CC=O here
no (0)

# fetch the recorded call for CC(C)(CO)[N+](=O)[O-] here
no (0)

# fetch the recorded call for Cc1ccc(C(=O)O)o1 here
no (0)

# fetch the recorded call for Nc1cc([N+](=O)[O-])ccc1Cl here
no (0)

# fetch the recorded call for Cc1ccc2n[nH]nc2c1 here
no (0)

# fetch the recorded call for CCCCN here
no (0)

# fetch the recorded call for O=C(O)c1cn(-c2ccc(F)cc2)c2cc(N3CCNCC3)c(F)cc2c1=O here
no (0)

# fetch the recorded call for CC(=O)[O][Al][O]C(C)=O here
no (0)

# fetch the recorded call for CC(CCO)CCCC(C)(C)O (stereo not given) here
no (0)

# fetch the recorded call for OCC(CO)(CO)COCC(CO)(CO)CO here
no (0)

# fetch the recorded call for Cc1ncc([N+](=O)[O-])n1C here
no (0)

# fetch the recorded call for O=C(O)CN(CCN(CC(=O)O)CC(=O)O)CCN(CC(=O)O)CC(=O)O here
no (0)

# fetch the recorded call for O=Cc1ccc(F)cc1 here
no (0)

# fetch the recorded call for CCCCCCCCCCCCCOS(=O)(=O)O here
no (0)

# fetch the recorded call for CCCC[n+]1ccccc1 here
no (0)

# fetch the recorded call for Sc1nc(S)nc(S)n1 here
no (0)

# fetch the recorded call for CC(C)c1cccc(O)c1 here
no (0)

# fetch the recorded call for Cc1cccc(Nc2ccccc2C(=O)O)c1C here
no (0)

# fetch the recorded call for CCC(C(=O)NC(N)=O)c1ccccc1 (stereo not given) here
no (0)

# fetch the recorded call for CC(C)=CCCC(C)=CCCC(C)=CCO here
no (0)

# fetch the recorded call for C=C(C)C(=O)OCc1ccccc1 here
no (0)

# fetch the recorded call for COc1ccc(OC)c(OC)c1 here
no (0)

# fetch the recorded call for CC1CCC(C(C)CS)CC1S (stereo not given) here
no (0)

# fetch the recorded call for CC(C)(N)CO here
no (0)

# fetch the recorded call for COc1c(Cl)c(Cl)c(Cl)c(Cl)c1Cl here
no (0)

# fetch the recorded call for CCCCCCOC(=O)CCCCC here
no (0)

# fetch the recorded call for CNCCCC12CCC(c3ccccc31)c1ccccc12 here
yes (1)

# fetch the recorded call for CO[Si](CCCn1c(=O)n(CCC[Si](OC)(OC)OC)c(=O)n(CCC[Si](OC)(OC)OC)c1=O)(OC)OC here
no (0)

# fetch the recorded call for NC(=O)NC1NC(=O)NC1=O (stereo not given) here
no (0)

# fetch the recorded call for COc1cc(C(C)(C)C)c(O)c(C(C)(C)C)c1 here
no (0)

# fetch the recorded call for COc1ccnc(CS(=O)c2nc3cc(OC(F)F)ccc3[nH]2)c1OC (stereo not given) here
no (0)

# fetch the recorded call for CO[Si](C)(OC)c1ccccc1 here
no (0)

# fetch the recorded call for C=CC(=O)OCC(O)COc1ccccc1 (stereo not given) here
yes (1)

# fetch the recorded call for Clc1sc(Cl)c(Cl)c1Cl here
no (0)

# fetch the recorded call for N#Cc1nc(Cl)c(Cl)c(Cl)c1Cl here
yes (1)

# fetch the recorded call for O=C1CCCCCCCCCCCCCCO1 here
no (0)

# fetch the recorded call for O=C(O)CCCCCCCC(=O)O here
no (0)

# fetch the recorded call for Nc1cc(Cl)c(O)c(Cl)c1 here
yes (1)

# fetch the recorded call for CCOC(=O)c1ccccc1OC here
no (0)

# fetch the recorded call for O=S(=O)(O)c1ccc(O)c2ncccc12 here
no (0)

# fetch the recorded call for CCOc1ccccc1OCC here
no (0)

# fetch the recorded call for Nc1ccc(S(=O)(=O)O)c(N)c1 here
no (0)

# fetch the recorded call for C=CC(=O)NCOCC(C)C here
no (0)

# fetch the recorded call for CC(C)=CCC/C(C)=C/COC=O here
no (0)

# fetch the recorded call for C=C(C)C(=O)OCCOC(=O)CC(C)=O here
no (0)

# fetch the recorded call for C=CCOc1nc(OCC=C)nc(OCC=C)n1 here
no (0)

# fetch the recorded call for CN1Cc2c(N)cccc2C(c2ccccc2)C1 (stereo not given) here
no (0)

# fetch the recorded call for CC(C)=CCCC(C)CC=O (stereo not given) here
no (0)

# fetch the recorded call for CCOC(=S)SSC(=S)OCC here
no (0)

# fetch the recorded call for O=C1NC(=O)c2ccccc21 here
no (0)

# fetch the recorded call for CCCCCOC(=O)CCC here
no (0)

# credit: PubChem BioAssay (EPA / NIEHS)
